Source: ChEMBL document CHEMBL3352006

Listing: Ratio IC50 of selected compounds
Tested on: Calu-1
Assay: Selectivity ratio of IC50 for PLD1 (unknown origin) expressed in human Calu1 cells to IC50 for PLD2 (unknown origin) expressed in HEK293-gfp cells
Format: cell-based
Write the number on its own, no unit after it.

Query CC(CNC(=O)c1cc2cc(F)ccc2[nH]1)N1CCC2(CC1)C(=O)NCN2c1ccccc1 (racemic) yields Ratio IC50 of 2

Query CC(CNC(=O)c1ccc(F)cc1)N1CCC2(CC1)C(=O)NCN2c1ccccc1 (racemic) yields Ratio IC50 of 5

Query CC(CNC(=O)c1ccc2ccccc2c1)N1CCC2(CC1)C(=O)NCN2c1ccccc1 (racemic) yields Ratio IC50 of 5

Query CC(CNC(=O)c1ccc(F)c(F)c1)N1CCC2(CC1)C(=O)NCN2c1ccccc1 (racemic) yields Ratio IC50 of 63

Query CC(CNC(=O)c1ccc(Br)cc1)N1CCC2(CC1)C(=O)NCN2c1ccccc1 (racemic) yields Ratio IC50 of 2

Below: the item to evaluate.
Query CC(CNC(=O)c1cc2ccccc2[nH]1)N1CCC2(CC1)C(=O)NCN2c1ccccc1 (racemic) yields Ratio IC50 of 3
